target: GlcNAc(b1-3)Gal(b1-4)GlcNAc(b1-2)Man(a1-3)[GlcNAc(b1-3)Gal(b1-4)GlcNAc(b1-2)Man(a1-6)]Man(b1-4)GlcNAc(b1-4)GlcNAc; experiment: glycan array binding signal (z-score within array); higher = stronger binding; conditions: glycan notation: IUPAC condensed, linker removed
Many of the other results were omitted from the sample, so the strongest signals are more common in it than they were.
Measured glycan array binding signal (z-score) of individual entries
// return just the number, without any unit appended

Some binders with known glycan array binding signal (z-score) results, for comparison:
| binder | assay_metric | data_value |
| --- | --- | --- |
| RsaA-N-term (Caulobacter crescentus), P35828 (protein) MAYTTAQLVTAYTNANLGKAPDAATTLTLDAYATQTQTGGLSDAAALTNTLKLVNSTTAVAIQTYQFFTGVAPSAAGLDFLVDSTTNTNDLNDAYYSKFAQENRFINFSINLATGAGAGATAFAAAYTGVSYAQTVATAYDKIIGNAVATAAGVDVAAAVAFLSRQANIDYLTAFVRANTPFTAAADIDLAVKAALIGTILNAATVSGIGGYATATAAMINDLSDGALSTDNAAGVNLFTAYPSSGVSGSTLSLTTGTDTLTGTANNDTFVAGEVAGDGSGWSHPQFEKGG | glycan array binding signal (z-score) | 2.18 |
| Agalectin (Anopheles gambiae) (protein) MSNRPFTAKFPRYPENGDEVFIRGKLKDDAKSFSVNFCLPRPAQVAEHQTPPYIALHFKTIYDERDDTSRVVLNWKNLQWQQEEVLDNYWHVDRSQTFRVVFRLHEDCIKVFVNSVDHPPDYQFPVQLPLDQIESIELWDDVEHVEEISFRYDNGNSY | glycan array binding signal (z-score) | -0.912 |

Next, consider the following binder.
glycan array binding signal (z-score) for Langerin K299A/K313A (Homo sapiens), Q9UJ71 (protein) STLNAQIPELKSDLEKASALNTKIRALQGSLENMSKLLKRQNDILQVVSQGWKYFKGNFYYFSLIPKTWYSAEQFCVSRNSHLTSVTSESEQEFLYKTAGGLIYWIGLTKAGMEGDWSWVDDTPFNKVQSARFWIPGEPNNAGNNEHCGNIAAPSLQAWNDAPCDATFLFICKRPYVPSEP ?
0.619
